Where these numbers come from: patent US20220267352A1

Reported pIC50 values for a set of compounds
System: p-p70 S6 Kinase (Thr389) in MCF-7 cells
Method notes: AlphaLISA Ultra pS6K1 assay
Format: cell-based
Reported conditions: Homo sapiens, 1.5 h; MCF7 cells, 90 min
pIC50: −log10 of the molar value.

{"Compound": "CO[C@@H]1/C(C)=C/[C@@H](C)C(=O)C[C@@H]([C@H](C)C[C@@H]2CC[C@@H](O)[C@H](OC)C2)OC(=O)[C@@H]2CCCCN2C(=O)C(=O)[C@]2(O)O[C@@H](CC[C@H]2C)C[C@H](OCCOC2COC2)/C(C)=C/C=C/C=C/[C@@H](C)C[C@@H](C)C(=O)[C@@H]1OC", "pIC50": "≤ 6.00"}
{"Compound": "CO[C@@H]1C[C@H](C[C@@H](C)[C@@H]2CC(=O)[C@H](C)/C=C(\\C)[C@@H](O)[C@@H](OC)C(=O)[C@H](C)C[C@H](C)/C=C/C=C/C=C(\\C)C(OCc3cnccn3)C[C@@H]3CC[C@@H](C)[C@@](O)(O3)C(=O)C(=O)N3CCCC[C@H]3C(=O)O2)CC[C@H]1OCCO (stereo partly shown)", "pIC50": "> 9.00"}
{"Compound": "CO[C@@H]1C[C@H](C[C@@H](C)[C@@H]2CC(=O)[C@H](C)/C=C(\\C)[C@@H](O)[C@@H](OC)C(=O)[C@H](C)C[C@H](C)/C=C/C=C/C=C(\\C)C(OCCOC3COC3)C[C@@H]3CC[C@@H](C)[C@@](O)(O3)C(=O)C(=O)N3CCCC[C@H]3C(=O)O2)CC[C@H]1O (stereo partly shown)", "pIC50": "8.00 to 9.00"}
{"Compound": "CO[C@@H]1/C(C)=C/[C@@H](C)C(=O)C[C@@H]([C@H](C)C[C@@H]2CC[C@@H](OP(C)(C)=O)[C@H](OC)C2)OC(=O)[C@@H]2CCCCN2C(=O)C(=O)[C@]2(O)O[C@@H](CC[C@H]2C)C[C@H](OCC2COCCO2)/C(C)=C/C=C/C=C/[C@@H](C)C[C@@H](C)C(=O)[C@@H]1OC (stereo partly shown)", "pIC50": "7.00 to 8.00"}
